Kindly state TGI for each of the entries shown.
Test system: NCI-H522 lung
assay-method-text: NCI tumour cell line growth inhibition, 48 h
// return numeric value only (unit: µM, not printed)

If you can, please state the reported TGI value of COC1C(CO)OC(n2c3c(Cl)cccc3c3c4c(c5c6cccc(Cl)c6[nH]c5c32)C(=O)NC4=O)C(O)C1O (stereo not given) . 10.5

Would you mind doing CCOC1NC(/N=C/c2ccc(OC)cc2)=C(C#N)C1C#N (stereo not given) as well? 47.8

Would you mind doing CC(=O)c1[nH]c(Nc2ccc(C)cc2)c(C(=S)Nc2ccccc2)c1N as well? 32.5

###

Tested on: U251 CNS
assay-method-text: NCI tumour cell line growth inhibition, 48 h
Kindly state TGI for each of the entries shown.
// return numeric value only (unit: µM, not printed)

If you can, please state the reported TGI value of CC(C)C1=C(Cc2ccccc2)C(=O)O/C1=C\c1ccc(O)c(Cl)c1 . 30.3

Would you mind doing O=C(NO)c1ccc(Cn2c(=O)n(-c3ccccc3)c(=O)c3ccccc32)cc1 as well? 2.3

Would you mind doing N#Cc1cc([N+](=O)[O-])ccc1NC(=O)C(=O)C(C(=O)c1ccc2ccccc2c1)C1OCc2ccccc21 (stereo not given) as well? 16.8

Would you mind doing CC(C)=CCC[C@@H](C)C1=CC(=O)C(C)=C(O)C1=O as well? 38.7

Would you mind doing Cn1c(COC(=O)NC2CCCCC2)c(COC(=O)NC2CCCCC2)c2ccc3cc(C=O)ccc3c21 as well? 87.5

Values from PubChem BioAssay (NCI)
